Molecular target: T1, RTEL1∆762 (human, UniProt Q9NZ71-6 762-1300)
T1 sequence: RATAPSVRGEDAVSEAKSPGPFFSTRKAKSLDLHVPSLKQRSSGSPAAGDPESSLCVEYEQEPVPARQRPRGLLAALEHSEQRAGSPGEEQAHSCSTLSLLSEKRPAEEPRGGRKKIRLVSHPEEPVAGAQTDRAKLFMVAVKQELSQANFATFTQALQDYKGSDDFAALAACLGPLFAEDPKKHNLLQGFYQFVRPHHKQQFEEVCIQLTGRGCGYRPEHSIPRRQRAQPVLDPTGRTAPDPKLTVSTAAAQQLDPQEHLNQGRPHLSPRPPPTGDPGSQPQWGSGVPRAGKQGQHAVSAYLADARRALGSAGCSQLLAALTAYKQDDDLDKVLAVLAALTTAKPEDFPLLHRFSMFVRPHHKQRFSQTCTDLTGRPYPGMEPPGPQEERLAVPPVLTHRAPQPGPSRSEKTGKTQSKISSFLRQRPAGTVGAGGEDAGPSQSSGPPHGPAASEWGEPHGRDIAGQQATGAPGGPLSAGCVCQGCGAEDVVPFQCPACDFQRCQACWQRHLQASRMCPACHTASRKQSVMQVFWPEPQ
Test: competition (fluorescence anisotropy); vs FAM-TERRA-MUT, 200 nM; 20 mM Tris pH 7.5, 50 mM KCl, 0.5 mM TCEP, 0.5 mM MgCl2, 10% glycerol, 0.1% IGEPAL, room temperature 30 min; oligos refolded in 10 mM Tris pH 7.5, 100 mM KCl; EMSA legends give 150 or 300 mM KCl
Conditions: protein: recombinant; tags: 6xHis; chain copies: 2; no G4
READOUT_NAME: pKi
Note: pKi values are expressed as the negative base-10 logarithm of concentration in M.

Task: // returns reported pKi for input GGTTACCGTTACCGTTACCGTTACCGTTAG (ssDNA) [hTelo-MUT]
Output: 7.03
